The measured values listed here are drawn from patent US20240360153A1.

- assayComment: In vitro microsomal metabolic stability, human liver microsomes
- Assay type: in vitro ADME
- testSettings: pH 7.2; Human liver microsomes, 1 μM, 0.5 mg/ml protein, NADPH
measuredAttribute: half-life at 1 µM (min)

- molecule: "CO[C@@H]1CC(C[C@@H](C)[C@@H]2CC[C@H](C)/C=C(\\C)[C@@H](O)[C@@H](OC)C(=O)[C@H](C)C[C@H](C)/C=C/C=C/C=C(\\C)C(Nc3cncc(C)n3)CC3CC[C@@H](C)[C@@](O)(O3)C(=O)C(=O)N3CCCC[C@H]3C(=O)O2)CC[C@H]1O (stereo partly drawn)"
  reportedResult: 26.3
- molecule: "CO[C@@H]1C[C@H](C[C@@H](C)[C@@H]2CC[C@H](C)/C=C(\\C)[C@@H](O)[C@@H](OC)C(=O)[C@H](C)C[C@H](C)/C=C/C=C/C=C(\\C)C(Nc3cnon3)C[C@@H]3CC[C@@H](C)[C@@](O)(O3)C(=O)C(=O)N3CCCCC3C(=O)O2)CC[C@H]1O (stereo partly drawn)"
  reportedResult: 7.13
- molecule: "CO[C@H]1C[C@@H]2CC[C@@H](C)[C@@](O)(O2)C(=O)C(=O)N2CCCC[C@H]2C(=O)O[C@H]([C@H](C)C[C@@H]2CC[C@@H](OCCO)[C@H](OC)C2)CC(=O)[C@H](C)/C=C(\\C)[C@@H](O)[C@@H](OC)C(=O)[C@H](C)C[C@H](C)/C=C/C=C/C=C/1C [RAD001, everolimus, reference compound]"
  reportedResult: 11.1

----------
- assayComment: In vitro microsomal metabolic stability, human liver microsomes
- Assay type: in vitro ADME
- testSettings: Human liver microsomes, with NADPH, 60 min
One threshold, 30%, splits the recorded Remaining (T = 60 min) values: lower ones are Satisfied, equal or higher ones are Not satisfied.

- compound: "CO[C@@H]1C[C@H](C[C@@H](C)[C@@H]2CC[C@H](C)/C=C(\\C)[C@@H](O)[C@@H](OC)C(=O)[C@H](C)C[C@H](C)/C=C/C=C/C=C(\\C)C(Nc3ccc(Cl)cc3)C[C@@H]3CC[C@@H](C)[C@@](O)(O3)C(=O)C(=O)N3CCCCC3C(=O)O2)CC[C@H]1O (stereo partly shown)"
  assignedClass: "Not satisfied"
- compound: "CO[C@@H]1C[C@H](C[C@@H](C)[C@@H]2CC[C@H](C)/C=C(\\C)[C@@H](O)[C@@H](OC)C(=O)[C@H](C)C[C@H](C)/C=C/C=C/C=C(\\C)C(Nc3cnon3)C[C@@H]3CC[C@@H](C)[C@@](O)(O3)C(=O)C(=O)N3CCCCC3C(=O)O2)CC[C@H]1O (stereo partly shown)"
  assignedClass: "Satisfied"
- compound: "CCOc1cccc(NC2C[C@@H]3CC[C@@H](C)[C@@](O)(O3)C(=O)C(=O)N3CCCCC3C(=O)O[C@H]([C@H](C)C[C@@H]3CC[C@@H](O)[C@H](OC)C3)CC[C@H](C)/C=C(\\C)[C@@H](O)[C@@H](OC)C(=O)[C@H](C)C[C@H](C)/C=C/C=C/C=C/2C)c1 (stereo partly shown)"
  assignedClass: "Not satisfied"
- compound: "CO[C@@H]1C[C@H](C[C@@H](C)[C@@H]2CC[C@H](C)/C=C(\\C)[C@@H](O)[C@@H](OC)C(=O)[C@H](C)C[C@H](C)/C=C/C=C/C=C(\\C)C(Nc3cccc(C)c3)C[C@@H]3CC[C@@H](C)[C@@](O)(O3)C(=O)C(=O)N3CCCCC3C(=O)O2)CC[C@H]1O (stereo partly shown)"
  assignedClass: "Satisfied"
- compound: "CO[C@@H]1CC(C[C@@H](C)[C@@H]2CC[C@H](C)/C=C(\\C)[C@@H](O)[C@@H](OC)C(=O)[C@H](C)C[C@H](C)/C=C/C=C/C=C(\\C)C(Nc3cncc(C)n3)CC3CC[C@@H](C)[C@@](O)(O3)C(=O)C(=O)N3CCCC[C@H]3C(=O)O2)CC[C@H]1O (stereo partly shown)"
  assignedClass: "Satisfied"
- compound: "COCCN(c1ccccc1)C1C[C@@H]2CC[C@@H](C)[C@@](O)(O2)C(=O)C(=O)N2CCCC[C@H]2C(=O)OC([C@H](C)CC2CC[C@@H](O)C(OC)C2)CC[C@H](C)/C=C(\\C)C(O)C(OC)C(=O)[C@H](C)C[C@H](C)/C=C/C=C/C=C/1C (stereo partly shown)"
  assignedClass: "Not satisfied"
- compound: "CO[C@@H]1C[C@H](C[C@@H](C)[C@@H]2CC[C@H](C)/C=C(\\C)[C@@H](O)[C@@H](OC)C(=O)[C@H](C)C[C@H](C)/C=C/C=C/C=C(\\C)C(Nc3cccc(OC(F)(F)F)c3)C[C@@H]3CC[C@@H](C)[C@@](O)(O3)C(=O)C(=O)N3CCCCC3C(=O)O2)CC[C@H]1O (stereo partly shown)"
  assignedClass: "Not satisfied"
